// provenance: the supplement of paper PMC12632987

Molecular target: T1, TRAF2, Q12933
T1 chain: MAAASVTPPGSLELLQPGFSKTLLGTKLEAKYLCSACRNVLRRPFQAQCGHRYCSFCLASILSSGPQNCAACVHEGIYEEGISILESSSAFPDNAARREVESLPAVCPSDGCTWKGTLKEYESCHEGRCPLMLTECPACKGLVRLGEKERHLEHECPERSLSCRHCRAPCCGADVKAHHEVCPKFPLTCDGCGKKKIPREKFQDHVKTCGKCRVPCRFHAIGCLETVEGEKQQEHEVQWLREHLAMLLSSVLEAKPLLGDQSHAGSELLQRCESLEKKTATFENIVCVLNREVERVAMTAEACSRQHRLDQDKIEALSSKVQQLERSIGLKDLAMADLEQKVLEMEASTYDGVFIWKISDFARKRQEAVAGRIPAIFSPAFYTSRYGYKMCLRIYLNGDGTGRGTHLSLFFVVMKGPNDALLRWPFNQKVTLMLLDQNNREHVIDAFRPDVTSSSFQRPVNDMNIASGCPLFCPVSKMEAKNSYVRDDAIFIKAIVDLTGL
Test: median log2 fold change of GCK-ALFA target abundance (FLAG IP / Myc IP barcode read proportion) (log2 ratio); each designed protein is fused to an ALFA-tag nanobody in HEK293 cells to bring the named protein to FLAG-tagged glucokinase (GCK); Myc marks an untargeted standard; higher = target protein stabilised (more abundant)
Conditions: target protein: 3xFLAG-MCP-GCK-ALFA reporter; HEK293 landing pad (RPLP)
In all, about 1,800 sequences were measured (“median log2 fold change of GCK-ALFA target abundance (FLAG IP / Myc IP barcode read proportion)”: median about 0.14, lowest 2% from about -0.84 on). Many of the other results were omitted from the sample, so the lowest values are more common in it than they were.
Note to self: values exactly at -0.07 are yes. So median log2 fold change at or above -0.07 is yes, below is no.

Binder | Answer label
traf2_out_3_89_2287 (protein) SEEREKKIEELRRIIDRYLKGFEKSARRVAKEMLEEGYSLDTLEGVLNASKTALVEEIRRLAKERGLSEEDIKELVEEATKRLDEIVDKILEEAKKARAE | no
traf2_out_17_162_1551 (protein) SALEEELERLEEELRRLEEELERLKKELENLEKKSKEELTDLLVEASEARRRARELAERLRELEPLIGEERAGELRERAEEIAEELQRIANKIYKELEKK | yes
traf2_out_3_89_2310 (protein) GAERERTIEEMRREMERYIRGFRKSAERVAKEMLEDGMSLETLRGVLEAAKSALLEVLRERMRERGLSEEEIEELLEEAGRELDKVVEEVVAEAEERRKA | no
traf2_out_6_156_2424 (protein) MLEKIIKEAEEKIKKEIKKLAEASEEKKIKYISDIAGAVYKALQKMREAGASVEEIKEAIERLKKVAEKEAKKAGLDKDTRDLLLASINAVGEVALREAK | yes
traf2_out_6_156_2450 (protein) MIEEIFEKAVKEIEELIKKLAAAPESKKIAYINKIAGTFYKALQELRESGASLEEIEEFVERLLKKAEELANEAGLDEDTKNLLLSTLSAVGEVAIANAK | yes
traf2_out_17_162_1603 (protein) SSLEKKKEELLKKKEELKEELKRLTEKLKNIEKLSKEELSDLLVEASEKKREALEALEKIEELKDELDPEEYEKLSTEFEELAEEFQRIANKFYKELEKK | yes
traf2_out_5_63_2366 (protein) SAAEEERRRLREEARLIEAAIRAVIDGREEEARRLLAEAEARGIDWRTVALYFRGMARALRLQNEPQEKIERMERAAEEARARAEAAAAAAAAAAAAAAA | no
traf2_out_20_3_2202 (protein) EELEKKLEEELEKAEELLKKAKELADPETAKKLDELIKRLKESRELSYEDRLVELSEIRREVLLLAQQAKAEGNEELAKVLEEAAEAINRAKNLVYKIIE | yes

Record traf2_out_17_162_1539 (protein) SPTEERLEELERRLERLEEELKKLKEKSEKLDELSKEEISDLLVEVSELRREALRLAEELRRLAEETGSPRARELEERAERLAEELQRIANKIYKELEKK ; criterion: median log2 fold change no lower than -0.07. Met? yes
